# system: T1, biotinylated CXCR4-virus like particle (Integral Molecular, Lot INT-1793B) (human, UniProt P61073 1-352, VLP biotinylated, sites not stated)
# T1 construct: also called hCXCR4 VLP; CXCR4 VLP
# T1 sequence (P61073 whole entry): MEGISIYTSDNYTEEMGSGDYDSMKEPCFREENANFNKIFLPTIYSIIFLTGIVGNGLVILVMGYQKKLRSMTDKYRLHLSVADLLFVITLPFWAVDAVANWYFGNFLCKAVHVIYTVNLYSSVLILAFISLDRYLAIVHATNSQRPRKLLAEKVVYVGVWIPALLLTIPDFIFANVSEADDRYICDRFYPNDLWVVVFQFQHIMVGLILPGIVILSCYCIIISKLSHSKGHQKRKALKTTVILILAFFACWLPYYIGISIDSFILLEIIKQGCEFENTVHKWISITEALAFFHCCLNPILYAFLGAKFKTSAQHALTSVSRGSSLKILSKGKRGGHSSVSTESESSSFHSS
# assay notes: SPR (Biacore 8K), biotinylated CXCR4 VLP captured on SA chip, Fab as analyte, 25 C, 1:1 model
pKd: −log10 of the molar value.

binder	pKd
CL-82574 Fab fragment (Fab, V domains shown, Purified Fab fragment) VH: QVQLVESGGGVVQPGRSLRLSCAASGFTFYSYGMHWVRQAPGKGLEWVAVIWYGGTNKYYADSVKGRFTISRDNSKNTLYLQMNSLTAEDTAVYYCARGQLERRRGGLNIWGQGTVVTVSS VL: DIQMTQSPSSLSASVGDRVTITCRASQGVRDDLGWYQQKPGKAPKRLIYAASSLQSGVPSRFSGSGSGTEFTLTISSLQPEDFATYYCLQHNSYPFTFGPGTKVDIK	9.28

Provenance of the data: patent US20240294651A1
